- Experimental Protocol: Solubility of aspirin in propylene glycol, polyethylene glycol-400 and dimethyl isosorbide
- Format: physicochemical
- Measurement Context: organic solvent or mixture; in propylene glycol, room temperature, 24 hours
Test Readout: solubility at 24 h (mg/mL)
Give bare numbers, in mg/mL.

# query: solubility at 24 h of entry CC(=O)Oc1ccccc1C(=O)O [Aspirin, acetylsalicylic acid]
160

---

- Experimental Protocol: Solubility of aspirin in propylene glycol, polyethylene glycol-400 and dimethyl isosorbide
- Assay type: physicochemical
- Measurement Context: organic solvent or mixture; in polyethylene glycol-400, room temperature, 24 hours
Test Readout: solubility at 24 h
Answer with the figure and its unit, nothing else.

# query: solubility at 24 h of entry `CC(=O)Oc1ccccc1C(=O)O`
254 mg/mL
